Catalogue of GI50 values
# Test system: A549 NSCLC
# protocol.description: NCI tumour cell line growth inhibition, 48 h
measured.parameter: GI50

# record.smiles, measured.parameter, measurement
measured = [
    ("COc1cc(NC(=O)c2ccccc2Nc2ccnc(C(F)(F)F)c2)cc(OC)c1OC", "GI50", "58.1 µM"),
    ("COc1ccc2c(c1)C(=O)c1c-2c(N2CCN(C(=O)CCNCCNCCO)CC2)nc2ccccc12", "GI50", "13.2 µM"),
    ("COc1ccc(-c2nc3sccn3c2-c2ccnc(NCCCNS(=O)(=O)c3ccc(F)cc3)n2)cc1", "GI50", "2.94 µM"),
    ("FC(F)(F)c1ccc(NCc2nc3ccccc3[nH]2)cc1", "GI50", "27.7 µM"),
    ("O=C(O)c1cn(C2CC2)c2cc(N3CCN(Cc4ccc5ccccc5c4O)CC3)c(F)cc2c1=O", "GI50", "3.29 µM"),
    ("COC(=O)[C@]12CC[C@@H](C)[C@H](C)[C@@H]1C1=CC[C@@H]3[C@@]4(C)CC(=O)[C@H](O)[C@@](C)(CO)[C@@H]4C(=O)C[C@@]3(C)[C@]1(C)CC2", "GI50", "15.8 µM"),
    ("Fc1ccc(-c2c(-c3ccncc3)[nH]c3nccnc23)cc1", "GI50", "7.35 µM"),
]

Entry source: PubChem BioAssay (NCI)
